Entry source: ChEMBL document CHEMBL1124492

# measured.on: Thymidylate synthase (Homo sapiens)
# Sequence (P04818 whole entry): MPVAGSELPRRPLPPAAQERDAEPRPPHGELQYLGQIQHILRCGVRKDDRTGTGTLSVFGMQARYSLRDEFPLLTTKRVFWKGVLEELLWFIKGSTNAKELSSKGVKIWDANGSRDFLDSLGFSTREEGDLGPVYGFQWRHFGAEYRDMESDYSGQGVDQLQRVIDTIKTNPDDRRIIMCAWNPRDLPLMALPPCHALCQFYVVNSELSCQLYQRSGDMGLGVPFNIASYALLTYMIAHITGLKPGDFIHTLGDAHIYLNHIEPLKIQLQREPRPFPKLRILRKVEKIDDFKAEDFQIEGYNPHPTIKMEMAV
# assay.comment: Inhibition of purified human thymidylate synthase from a SV40-transformed human fibroblast cell line cloned in Escherichia coli
What IC50 was measured for each of the following?
Give bare numbers, in µM.

Would you mind giving IC50 for every molecule in the list below?
1. C#CCN(Cc1ccc2nc(C)n(C)c(=O)c2c1)c1ccc(C(=O)NC(CCC(=O)O)C(=O)O)cc1 (configuration not stated)
2. C#CCN(Cc1ccc2nc(C)nc(O)c2c1)c1ccc(C(=O)NC(CCC(=O)O)C(=O)O)cc1 (configuration not stated)

output:
1. 11.3
2. 0.0098

* * *

# measured.on: Bifunctional purine biosynthesis protein ATIC (Homo sapiens, UniProt P31939)
# Sequence (P31939 whole entry): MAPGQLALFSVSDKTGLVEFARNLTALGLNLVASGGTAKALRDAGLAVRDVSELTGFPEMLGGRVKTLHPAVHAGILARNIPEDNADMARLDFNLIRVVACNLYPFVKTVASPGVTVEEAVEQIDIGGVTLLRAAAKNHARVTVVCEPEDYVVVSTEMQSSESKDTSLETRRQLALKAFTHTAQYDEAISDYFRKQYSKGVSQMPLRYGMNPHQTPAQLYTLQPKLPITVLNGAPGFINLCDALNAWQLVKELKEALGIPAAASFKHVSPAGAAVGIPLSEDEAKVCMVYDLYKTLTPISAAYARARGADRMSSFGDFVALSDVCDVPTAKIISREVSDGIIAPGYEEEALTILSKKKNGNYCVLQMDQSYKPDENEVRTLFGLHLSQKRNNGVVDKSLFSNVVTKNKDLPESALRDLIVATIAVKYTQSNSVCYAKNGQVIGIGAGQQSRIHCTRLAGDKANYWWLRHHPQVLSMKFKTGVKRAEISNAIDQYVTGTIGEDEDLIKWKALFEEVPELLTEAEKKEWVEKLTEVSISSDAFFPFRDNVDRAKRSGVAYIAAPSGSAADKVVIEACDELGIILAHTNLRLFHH
# assay.comment: Inhibition of AICAR formyltransferase from extract of Manca human lymphoma cells
pIC50: −log10 of the molar value.
assay.readout: pIC50

input: // lookup pIC50 for C#CCN(Cc1ccc2nc(C)nc(O)c2c1)c1ccc(C(=O)NC(CCC(=O)O)C(=O)O)cc1 (stereo unspecified)
output: < 4.22
